The reported numbers originate from the supplement of paper PMC7726561.

- study_system: HLA-A*02:01;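 further: lysates heated 10 min at 37–73 °C, complexes pulled down with pan-HLA I antibody, peptide signal by DIA-MS relative to 37 °C, Tm where half the complex is unfolded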
- assay: thermal melting temperature (Tm) of peptide-HLA complex; higher = more thermostable pHLA complex
- condition_set: C1R-A*02:01
The full ranking holds about 1,100 sequences; the median of “thermal melting temperature (Tm) of peptide-HLA complex” is about 58, and the lowest 2% start at about 42. The entries come from a sample that favours the lowest values as a whole.
Measured thermal melting temperature accompanies every entry in the list below.

[
  {
    "ordered_residues": "ILDQKVALL",
    "thermal melting temperature / °C": 41.7
  },
  {
    "ordered_residues": "SLIRNLEQL",
    "thermal melting temperature / °C": 51.2
  },
  {
    "ordered_residues": "IAPPVPLKA",
    "thermal melting temperature / °C": 53
  },
  {
    "ordered_residues": "ILDQKINEV",
    "thermal melting temperature / °C": 60
  }
]
